# test: Solubilities of salts in three solvents (Example 2)
# appliedConditions: distilled water, 20 °C, pH 5, water, thermodynamic from solid
measure: solubility at 3 min (µg/mL)
Kindly answer with a numeric value in µg/mL, unit omitted.

Known results for compounds:
Br.O=C1NC2=Nc3ccc(Cl)c(Cl)c3CN2C12CC2 :: 2
CC(C)(C(=O)[O-])N1Cc2c(ccc(Cl)c2Cl)N=C1N.[Na+] :: 7340
Br.CC1(C)C(=O)NC2=Nc3ccc(Cl)cc3CN21 :: 20

Next compound, solubility at 3 min to be filled in.
// sample `Br.COC(=O)C1(N2Cc3c(ccc(Cl)c3Cl)N=C2N)CC1` , its solubility at 3 min was 7060
